Reference source for all entries: patent US7074789B2

Target Under Test: Itk (Homo sapiens)
Construct: Kinases are expressed as either kinase domains or full length constructs; made in house
Method Notes: Kinase inhibition assay (33P transfer), Itk
Assay type: biochemical
Details: Table 3; read-out: Itk-1
pIC50: −log10 of the molar value.
pIC50 by entry:

COc1cc(Nc2ncnc(Nc3cccc(Br)c3)n2)cc(OC)c1OC [Compound 75]    < 4.98
COc1ccc(Oc2ncnc(Nc3cc(OC)c(OC)c(OC)c3)n2)cc1 [Compound 174]    < 4.93

Recorded pIC50 for COc1ccccc1Nc1ncnc(-n2cccc2)n1 [Compound 279] , please?
< 4.77

Recorded pIC50 for COc1cc(Nc2ncnc(Nc3ccc4[nH]ncc4c3)n2)cc(OC)c1OC [Compound 79] , please?
> 5.99

Recorded pIC50 for COc1cc(Nc2ncnc(Nc3ccc(O)cc3C)n2)cc(OC)c1OC [Compound 927] , please?
< 4.93

====

pIC50 by entry:
Target Under Test: EPHB4 (Homo sapiens)
Sequence (P54760 16-987, species assumed): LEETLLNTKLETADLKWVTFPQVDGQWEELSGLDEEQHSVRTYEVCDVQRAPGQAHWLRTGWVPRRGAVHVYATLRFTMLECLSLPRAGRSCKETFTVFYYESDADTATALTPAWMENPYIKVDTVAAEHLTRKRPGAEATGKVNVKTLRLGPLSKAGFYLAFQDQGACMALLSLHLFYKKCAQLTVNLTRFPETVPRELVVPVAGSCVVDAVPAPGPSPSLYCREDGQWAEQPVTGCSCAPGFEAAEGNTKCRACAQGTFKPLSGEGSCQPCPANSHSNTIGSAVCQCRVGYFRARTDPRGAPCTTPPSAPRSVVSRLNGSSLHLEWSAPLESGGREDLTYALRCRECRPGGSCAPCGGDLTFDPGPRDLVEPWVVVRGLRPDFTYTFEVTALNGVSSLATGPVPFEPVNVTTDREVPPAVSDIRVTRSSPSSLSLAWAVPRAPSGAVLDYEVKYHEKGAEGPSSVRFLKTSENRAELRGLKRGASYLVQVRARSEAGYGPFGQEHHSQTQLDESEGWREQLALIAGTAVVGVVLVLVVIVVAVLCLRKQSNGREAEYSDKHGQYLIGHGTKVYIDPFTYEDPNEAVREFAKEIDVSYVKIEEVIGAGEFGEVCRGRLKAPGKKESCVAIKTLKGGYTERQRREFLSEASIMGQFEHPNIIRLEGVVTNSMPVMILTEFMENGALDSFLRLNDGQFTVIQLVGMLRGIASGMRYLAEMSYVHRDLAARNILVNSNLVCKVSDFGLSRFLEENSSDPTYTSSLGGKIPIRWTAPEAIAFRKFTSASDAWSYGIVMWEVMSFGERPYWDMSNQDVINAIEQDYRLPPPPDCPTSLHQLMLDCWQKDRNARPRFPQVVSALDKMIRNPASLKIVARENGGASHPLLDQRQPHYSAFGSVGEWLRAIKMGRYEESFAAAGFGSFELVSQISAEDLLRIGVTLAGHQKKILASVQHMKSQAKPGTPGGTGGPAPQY
pIC50: −log10 of the molar value.

These recorded examples may help you get a feel for the data.
COC(=O)c1sccc1Nc1ncnc(Nc2cc(OC)c(OC)c(OC)c2)n1 [Compound 315]    < 4.97
O=c1[nH]c2ccccc2n1-c1ncnc(Nc2ccc(-c3cnco3)cc2)n1 [Compound 379]    < 4.92
COc1cc(Nc2ncnc(Nc3ccccn3)n2)cc(OC)c1OC [Compound 40]    < 4.90
COCCOc1ccc(Nc2ncnc(Nc3ccc4[nH]ccc4c3)n2)cc1OCCOC [Compound 321]    < 5.00
COc1cc(Nc2ncnc(-n3ncc4ccccc43)n2)cc(OC)c1OC [Compound 240]    < 4.92
COCCOc1ccc(Nc2ncnc(-n3c(N)nc4ccccc43)n2)cc1OCCOC [Compound 302]    < 5.00

In the following, a different compound is considered.
Recorded pIC50 for COc1ccc(Nc2ncnc(N(CC(=O)O)c3ccc4c(c3)OCO4)n2)cc1OC [Compound 320] , please?
< 4.98

====

Target Under Test: EGFR (Homo sapiens)
Construct: Kinases are expressed as either kinase domains or full length constructs; made in house
Sequence (P00533 25-1210, species assumed): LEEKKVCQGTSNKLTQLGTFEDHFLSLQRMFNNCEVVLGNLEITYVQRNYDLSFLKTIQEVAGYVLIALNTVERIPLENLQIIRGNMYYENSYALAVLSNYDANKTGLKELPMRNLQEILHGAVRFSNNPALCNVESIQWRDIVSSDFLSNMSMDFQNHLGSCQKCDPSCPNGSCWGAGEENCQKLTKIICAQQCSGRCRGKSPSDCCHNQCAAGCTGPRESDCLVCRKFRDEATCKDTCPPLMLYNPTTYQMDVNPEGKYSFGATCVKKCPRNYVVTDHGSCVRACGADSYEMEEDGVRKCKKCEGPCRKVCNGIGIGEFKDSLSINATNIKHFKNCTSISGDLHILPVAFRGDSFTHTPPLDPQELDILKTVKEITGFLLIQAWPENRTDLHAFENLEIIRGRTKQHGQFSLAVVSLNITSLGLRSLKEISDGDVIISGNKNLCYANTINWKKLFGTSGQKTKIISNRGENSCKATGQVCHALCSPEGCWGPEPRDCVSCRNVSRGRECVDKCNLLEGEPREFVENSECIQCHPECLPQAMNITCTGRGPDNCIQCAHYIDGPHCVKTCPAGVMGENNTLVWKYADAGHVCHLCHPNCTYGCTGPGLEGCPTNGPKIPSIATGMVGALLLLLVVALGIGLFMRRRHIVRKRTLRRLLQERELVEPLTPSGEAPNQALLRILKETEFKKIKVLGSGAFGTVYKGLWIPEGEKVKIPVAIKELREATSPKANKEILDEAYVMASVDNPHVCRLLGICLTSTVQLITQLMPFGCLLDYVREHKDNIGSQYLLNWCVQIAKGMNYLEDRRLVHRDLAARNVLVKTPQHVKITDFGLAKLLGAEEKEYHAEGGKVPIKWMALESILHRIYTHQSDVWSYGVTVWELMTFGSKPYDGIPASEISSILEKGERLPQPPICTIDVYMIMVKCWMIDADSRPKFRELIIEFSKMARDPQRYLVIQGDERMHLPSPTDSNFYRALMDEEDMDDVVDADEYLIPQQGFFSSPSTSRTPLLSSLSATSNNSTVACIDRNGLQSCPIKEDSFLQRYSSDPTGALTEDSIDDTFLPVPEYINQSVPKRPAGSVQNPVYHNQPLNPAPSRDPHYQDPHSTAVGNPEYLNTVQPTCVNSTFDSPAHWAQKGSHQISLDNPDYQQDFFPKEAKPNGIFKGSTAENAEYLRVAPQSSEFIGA
Method Notes: Kinase inhibition assay (33P transfer), EGFR
Type: biochemical
Details: Table 2, class symbols A-E; read-out: EGFR-1
Experimental: The inhibitor compounds described herein are screened in the following manner. […] Kinases are expressed as either kinase domains or full length constructs fused to glutathione S-transferase (GST) or polyHistidine tagged fusion proteins in either E. colior Baculovirus-High Five expression systems. […] Kinase activity and inhibition are measured essentially by established protocols (Braunwalder et al., 1996). […]
Endpoint Label: IC50

COc1cc(Nc2ncnc(-c3cccnc3N[C@H](C)c3ccccc3)n2)cc(OC)c1OC    872 to 5230 nM
CCN(c1ncnc(Nc2cc(OC)c(OC)c(OC)c2)n1)c1cccc2ccccc12    < 927 nM
COc1cc(Nc2ncnc(Nc3cc(-c4ccc(C(N)=O)cc4)n[nH]3)n2)cc(OC)c1OC    865 to 5190 nM

Recorded IC50 for "COC(=O)c1ccc(-c2cc(Nc3ncnc(NCCN4CCNC4=O)n3)[nH]n2)cc1" , please?
> 10600 nM

Recorded IC50 for "c1cc(Nc2ncnc(Nc3cc(-c4ccco4)[nH]n3)n2)cc(-c2cnco2)c1" , please?
< 1040 nM

====

Target Under Test: Itk (Homo sapiens, UniProt Q08881)
Construct: Kinases are expressed as either kinase domains or full length constructs; made in house
Sequence (Q08881 whole entry, species assumed, the tested form may be a part): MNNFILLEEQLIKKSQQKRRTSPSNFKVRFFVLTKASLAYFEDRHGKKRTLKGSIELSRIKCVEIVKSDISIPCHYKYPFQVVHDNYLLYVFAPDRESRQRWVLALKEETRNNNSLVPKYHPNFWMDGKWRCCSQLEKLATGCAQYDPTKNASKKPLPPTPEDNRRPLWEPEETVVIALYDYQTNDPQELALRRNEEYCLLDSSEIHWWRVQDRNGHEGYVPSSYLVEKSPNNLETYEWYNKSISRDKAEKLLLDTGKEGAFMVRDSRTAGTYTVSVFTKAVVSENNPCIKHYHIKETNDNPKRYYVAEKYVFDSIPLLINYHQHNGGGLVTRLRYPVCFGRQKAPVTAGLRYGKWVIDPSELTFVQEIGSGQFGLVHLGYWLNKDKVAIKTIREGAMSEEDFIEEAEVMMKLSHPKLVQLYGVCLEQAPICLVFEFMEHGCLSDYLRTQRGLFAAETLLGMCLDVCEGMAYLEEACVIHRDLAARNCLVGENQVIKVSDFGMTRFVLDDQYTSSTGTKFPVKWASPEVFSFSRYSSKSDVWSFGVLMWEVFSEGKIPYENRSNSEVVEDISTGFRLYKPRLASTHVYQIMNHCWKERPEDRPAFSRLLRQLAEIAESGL
Method Notes: Kinase inhibition assay (33P transfer), Itk
Type: biochemical
Details: read-out: Itk-1
IC50 by entry:

These recorded examples may help you get a feel for the data.
COc1cc(Nc2ncnc(-c3cccnc3NCCCN)n2)cc(OC)c1OC    > 10.9 µM
COc1cc(Nc2ncnc(-c3cccnc3NCCN3CCCCC3)n2)cc(OC)c1OC    > 9.67 µM
CN(c1cccc(Cl)c1)c1ncnc(Nc2ccc(F)c(C(F)(F)F)c2)n1    > 11.3 µM

Recorded IC50 for COc1cc(Nc2ncnc(-n3c(NC4CCc5ccccc54)nc4ccccc43)n2)cc(OC)c1OC (stereo not drawn) , please?
> 8.83 µM

====

pIC50 by entry:
Target Under Test: Itk (Homo sapiens, UniProt Q08881)
Construct: Kinases are expressed as either kinase domains or full length constructs; made in house
Method Notes: Kinase inhibition assay (33P transfer), Itk
Type: biochemical
Details: Table 3; read-out: Itk-1
pIC50: −log10 of the molar value.

These recorded examples may help you get a feel for the data.
COc1ccccc1Nc1ncnc(-c2ccccc2)n1    < 4.79
COc1cc(Nc2ncnc(-n3c(NC(C)C)nc4ccccc43)n2)cc(OC)c1OC    < 4.99
COc1cc(Nc2ncnc(Nc3ccc(C)c(F)c3)n2)cc(OC)c1OC    5.04 to 5.21

State its pIC50 on Itk (Homo sapiens, UniProt Q08881): "Fc1ccc(Nc2ncnc(-n3cccc3)n2)cc1"
< 4.75

State its pIC50 on Itk (Homo sapiens, UniProt Q08881): "C#Cc1cccc(Nc2ncnc(-n3c(=O)[nH]c4ccccc43)n2)c1"
< 4.86

State its pIC50 on Itk (Homo sapiens, UniProt Q08881): "COc1cc(Nc2ncnc(Nc3ccc4c(c3)Cc3ccccc3-4)n2)cc(OC)c1OC"
< 4.99

State its pIC50 on Itk (Homo sapiens, UniProt Q08881): "COc1cc(Nc2ncnc(-n3c(Nc4ccc5cn[nH]c5c4)nc4ccccc43)n2)cc(OC)c1OC"
< 5.05

State its pIC50 on Itk (Homo sapiens, UniProt Q08881): "CNc1ncnc(Nc2cc(OC)c(OC)c(OC)c2)n1"
< 4.81

State its pIC50 on Itk (Homo sapiens, UniProt Q08881): "COc1ccc(Nc2ncnc(Nc3cccc(C)c3)n2)cc1OC"
< 4.87

State its pIC50 on Itk (Homo sapiens, UniProt Q08881): "COc1ccc(Nc2ncnc(Nc3cccc(Br)c3)n2)cc1OC"
5.22 to 6.00

State its pIC50 on Itk (Homo sapiens, UniProt Q08881): "COc1ccc(Nc2ncnc(N(CC(=O)O)c3ccc4c(c3)OCO4)n2)cc1OC"
< 4.98

State its pIC50 on Itk (Homo sapiens, UniProt Q08881): "NC(=O)c1cccc(Nc2ncnc(-n3c(N)nc4ccccc43)n2)c1"
5.16 to 5.94

State its pIC50 on Itk (Homo sapiens, UniProt Q08881): "COc1cc(Nc2ncnc(-n3ccc4ccc(F)cc43)n2)cc(OC)c1OC"
< 4.94

State its pIC50 on Itk (Homo sapiens, UniProt Q08881): "OCCCNc1ncnc(-c2ccccc2)n1"
< 4.71

State its pIC50 on Itk (Homo sapiens, UniProt Q08881): "CC(=O)NCc1ccc(Nc2ncnc(Nc3cc(-c4ccco4)n[nH]3)n2)cc1"
5.21 to 5.99

State its pIC50 on Itk (Homo sapiens, UniProt Q08881): "COc1ccc(Nc2ncnc(Nc3ccc(OCc4ccccc4)cc3)n2)cc1O"
< 4.97

State its pIC50 on Itk (Homo sapiens, UniProt Q08881): "COc1cc(Nc2ncnc(Nc3ccc(N(C)C(C)=O)cc3)n2)cc(OC)c1OC"
< 4.97

State its pIC50 on Itk (Homo sapiens, UniProt Q08881): "COc1ccc(Nc2nc3ccccc3n2-c2ncnc(Nc3cc(OC)c(OC)c(OC)c3)n2)cc1OC"
< 5.07

====

Quick record of IC50 values for FGFR1 (Homo sapiens).

These recorded examples may help you get a feel for the data.
COc1cc(Nc2ncnc(N3CCc4cc([N+](=O)[O-])ccc43)n2)cc(OC)c1OC [Compound 187]    > 10.6 µM
NC(=O)c1cccc(Nc2ncnc(-n3c(N)nc4ccccc43)n2)c1 [Compound 395]    < 1.15 µM
COc1cc(Nc2ncnc(N(CC(=O)O)c3ccc4c(c3)OCO4)n2)cc(OC)c1OC [Compound 319]    > 9.88 µM
COc1cc(Nc2ncnc(-n3c(NCc4ccc([N+](=O)[O-])cc4)nc4ccccc43)n2)cc(OC)c1OC [Compound 952]    0.757 to 4.54 µM
Cc1cccc(Nc2ncnc(Nc3ccc4[nH]ncc4c3)n2)c1 [Compound 120]    1.26 to 7.56 µM

State its IC50 on FGFR1 (Homo sapiens): COc1cc(Nc2ncnc(-n3c(NCc4ccccn4)nc4ccccc43)n2)cc(OC)c1OC [Compound 414]
Sequence (P11362 22-822, species assumed): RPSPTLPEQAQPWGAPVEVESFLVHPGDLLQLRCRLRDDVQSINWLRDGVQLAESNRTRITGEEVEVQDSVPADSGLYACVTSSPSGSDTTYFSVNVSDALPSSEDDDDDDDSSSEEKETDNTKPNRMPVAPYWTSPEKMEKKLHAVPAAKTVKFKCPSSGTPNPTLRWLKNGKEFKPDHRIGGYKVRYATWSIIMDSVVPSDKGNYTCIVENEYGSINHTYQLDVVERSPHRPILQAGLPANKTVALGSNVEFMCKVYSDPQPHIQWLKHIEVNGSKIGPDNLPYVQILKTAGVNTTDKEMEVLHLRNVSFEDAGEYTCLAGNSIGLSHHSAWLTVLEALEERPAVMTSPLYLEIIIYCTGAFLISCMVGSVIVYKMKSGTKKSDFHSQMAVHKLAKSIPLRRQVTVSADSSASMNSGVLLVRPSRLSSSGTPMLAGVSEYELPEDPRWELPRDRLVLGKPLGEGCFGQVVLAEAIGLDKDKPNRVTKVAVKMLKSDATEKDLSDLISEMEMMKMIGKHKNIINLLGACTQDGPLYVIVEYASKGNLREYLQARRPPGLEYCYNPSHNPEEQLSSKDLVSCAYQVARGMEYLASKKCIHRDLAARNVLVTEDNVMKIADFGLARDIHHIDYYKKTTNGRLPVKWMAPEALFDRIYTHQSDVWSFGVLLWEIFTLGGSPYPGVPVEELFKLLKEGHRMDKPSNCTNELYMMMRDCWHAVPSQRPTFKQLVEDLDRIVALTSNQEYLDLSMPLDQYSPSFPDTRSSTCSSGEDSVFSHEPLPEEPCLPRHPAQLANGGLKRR
< 0.826 µM

State its IC50 on FGFR1 (Homo sapiens): COc1cc(Nc2ncnc(-n3c(NCc4ccc(Cl)cc4F)nc4ccccc43)n2)cc(OC)c1OC [Compound 606]
0.746 to 4.48 µM

State its IC50 on FGFR1 (Homo sapiens): COc1cc(Nc2ncnc(Nc3cccc4ccccc34)n2)cc(OC)c1OC [Compound 98]
5.95 to 8.68 µM

====

Target Under Test: c-Met (Homo sapiens)
Construct: Kinases are expressed as either kinase domains or full length constructs; made in house
Sequence (P08581 25-1390): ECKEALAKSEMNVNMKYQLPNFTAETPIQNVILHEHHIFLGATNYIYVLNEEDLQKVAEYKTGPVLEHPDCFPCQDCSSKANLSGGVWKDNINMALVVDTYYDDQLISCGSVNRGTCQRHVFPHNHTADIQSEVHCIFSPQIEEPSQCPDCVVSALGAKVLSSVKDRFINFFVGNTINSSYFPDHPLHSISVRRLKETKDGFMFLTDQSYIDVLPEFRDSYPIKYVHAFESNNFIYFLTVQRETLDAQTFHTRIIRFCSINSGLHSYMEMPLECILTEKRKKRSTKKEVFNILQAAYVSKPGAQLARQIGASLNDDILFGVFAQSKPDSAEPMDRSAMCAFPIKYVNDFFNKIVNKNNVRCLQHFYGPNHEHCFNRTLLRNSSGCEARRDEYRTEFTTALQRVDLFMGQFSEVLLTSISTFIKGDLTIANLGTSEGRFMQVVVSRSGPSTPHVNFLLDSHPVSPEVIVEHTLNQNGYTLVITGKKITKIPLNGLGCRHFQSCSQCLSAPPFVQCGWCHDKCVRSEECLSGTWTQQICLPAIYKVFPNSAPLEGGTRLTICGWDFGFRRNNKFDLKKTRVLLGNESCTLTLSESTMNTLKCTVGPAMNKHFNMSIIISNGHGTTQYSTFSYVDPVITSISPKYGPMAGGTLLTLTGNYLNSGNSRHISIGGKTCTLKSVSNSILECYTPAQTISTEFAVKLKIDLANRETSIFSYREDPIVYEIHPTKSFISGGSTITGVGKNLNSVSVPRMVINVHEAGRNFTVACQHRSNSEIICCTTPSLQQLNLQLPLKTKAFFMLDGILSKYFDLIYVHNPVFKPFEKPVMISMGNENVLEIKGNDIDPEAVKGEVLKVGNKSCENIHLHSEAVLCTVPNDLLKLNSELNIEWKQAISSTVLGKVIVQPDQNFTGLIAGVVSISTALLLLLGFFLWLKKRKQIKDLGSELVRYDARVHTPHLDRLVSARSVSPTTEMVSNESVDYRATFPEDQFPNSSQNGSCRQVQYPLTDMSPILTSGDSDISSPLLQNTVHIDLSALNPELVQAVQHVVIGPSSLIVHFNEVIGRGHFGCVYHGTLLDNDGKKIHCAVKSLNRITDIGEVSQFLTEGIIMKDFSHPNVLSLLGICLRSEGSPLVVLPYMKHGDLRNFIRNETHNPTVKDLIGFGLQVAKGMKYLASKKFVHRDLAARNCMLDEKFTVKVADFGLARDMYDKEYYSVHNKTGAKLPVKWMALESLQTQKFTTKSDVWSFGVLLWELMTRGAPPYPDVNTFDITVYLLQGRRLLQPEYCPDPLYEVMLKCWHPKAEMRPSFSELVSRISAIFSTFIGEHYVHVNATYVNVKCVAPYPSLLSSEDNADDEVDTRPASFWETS
Method Notes: Kinase inhibition assay (33P transfer), c-Met
Assay type: biochemical
Details: Table 2, class symbols A-E; read-out: Met-1
pIC50: −log10 of the molar value.
Endpoint Label: pIC50

These recorded examples may help you get a feel for the data.
COc1ccc(Nc2ncnc(Nc3ccc(F)c(F)c3)n2)cc1OC    4.90 to 5.01
Nc1nc2ccccc2n1-c1ncnc(Nc2cccc(Cn3ccnn3)c2)n1    4.93 to 5.04
COc1cc(Nc2ncnc(-c3cccnc3Nc3ccccc3)n2)ccc1NC(=O)CCCN1CCNCC1    5.35 to 6.13
COc1ccc(Nc2ncnc(Nc3ccc4c(c3)C(=O)OC4)n2)cc1OC    < 4.93

In the following, a different compound is considered.
Recorded pIC50 for "COc1ccc(Nc2ncnc(Nc3cccc(C#N)c3)n2)cc1OC" , please?
< 4.89
